Origin of measurements: PubChem BioAssay (NCI)

- assay: NCI Yeast Anticancer Drug Screen. Data for the rad52 strain (AID 147);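 further: 0% = growth of vehicle-treated control cultures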
- test_conditions: S. cerevisiae rad52 mutant growth inhibition; at 33.0 µM
The panel holds about 79,000 compounds, 15% with a hit somewhere; the sample as a whole holds those more often. The source made the active and inactive calls. No stated cut-off is given here; in the data, active means growth inhibition above about 70%; inactive means the rest.
Classes used: 1 (active), -1 (inactive)

molecule	assigned_label
CCOP(=O)(OCC)/C(C#N)=C/c1ccc(-c2ccc(F)cc2F)o1	-1
CC(C)N(CCCNc1c2ccccc2nc2cccc([N+](=O)[O-])c12)C(C)C	1
CCCCCCNCCCNc1c2ccccc2nc2cccc([N+](=O)[O-])c12	1
c1ccc2c(c1)ccn2CCc1c[nH]c2ccccc12	-1
O/N=c1/ccn(O)c2ccccc12	1
Oc1ccc(C2(c3ccc(O)cc3)CCCC2)cc1	1
CNC(=O)OCc1c2ccncc2c(C)c2c1[nH]c1ccccc12	1
CCCNCC(=O)O[C@]1(CC)C(=O)OCc2c1cc1n(c2=O)Cc2cc3ccccc3nc2-1	1
C[C@H](CCC1=NC(C)(C)CO1)C1CCC2[C@@H]3C(O)C[C@@H]4CC(O)CC[C@]4(C)C3CC[C@@]21C (stereo partly specified)	1
CC(C)OC(=O)NNc1cc(Cl)ccc1Cl	-1
Oc1c2c(c(O)c3ccccc13)C1(N=N2)c2ccccc2Oc2ccccc21	1

###

- assay: NCI Yeast Anticancer Drug Screen. Data for the rad52 strain (AID 147);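 further: 0% = growth of vehicle-treated control cultures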
- test_conditions: S. cerevisiae rad52 mutant growth inhibition; at 33.0 µM; hits give high values
The panel holds about 79,000 compounds, 15% with a hit somewhere; the sample as a whole holds those more often.

molecule	growth inhibition (%)
O=[N+]([O-])c1cccc2nc3ccccc3c(NCCCN3CCCCC3)c12	97
COC(=N)c1ccc(O)c(C)c1	-16
CCCCCCCSCC1C(=O)C23C(O)C1CCC2C12COC3(O)C(O)C1C(C)(C)CCC2O (configuration not stated)	94
CC(C)OP(=O)(OC(C)C)/C(Cl)=N/Nc1ccc([N+](=O)[O-])cc1	90
CCC(/C=C/c1ccccc1)=N\Nc1ccc(Cl)cc1	86
CC1(C)CC(=O)C(C=NC(=S)C(N)=S)=C(O)C1	-49
COc1cccc(C(NC2=NCCC=N2)c2cc3c(cc2O)OCO3)c1O (configuration not stated)	56
O=c1c2ccccc2nc(-c2ccc(Cl)cc2)n1O	96
COc1ccccc1NC(=O)c1ccc(Cl)cc1	5
CCCN=Cc1cc(Cc2ccc(O)c(C=NCCC)c2)ccc1O	98
CCOc1ccc2nc3ccccc3c(N)c2c1	91
CCOC(=O)/C(=C\c1ccc(F)cc1)C(C)=O	94

###

- assay: NCI Yeast Anticancer Drug Screen. Data for the mlh1 rad18 strain (AID 175)
- test_conditions: S. cerevisiae mlh1 rad18 strain growth inhibition; at 50.0 µM (retest, dose inferred, filed as 5.0); hits give high values
This is part of a sample that, as a whole, favours compounds with a hit. Of some 79,000 tested, about 15% had one in any assay.
Consider the following molecules and their measured growth inhibition readings.
parameter_measured: growth inhibition (%)

molecule	parameter_measured	assay_value
Oc1ccc(C2(c3ccc(O)cc3)CCCC2)cc1	growth inhibition	99
O=S1(=O)CCC2=CC(C(F)(F)F)=CC(C(F)(F)F)=CN21	growth inhibition	98
CCOC(=O)C(Cc1c2ccccc2cc2ccccc12)(NC(C)=O)C(=O)OCC	growth inhibition	35
CCc1c(Cl)c(C)c(Cl)c(O)c1Cl	growth inhibition	98
CCCC/C=C1\CCC(CN2CCCC2)C1=O (centres undefined)	growth inhibition	80
O=C(C#Cc1ccccc1)Nc1ccccc1	growth inhibition	-10
C[C@H](CCC1=NC(C)(C)CO1)C1CCC2[C@@H]3C(O)C[C@@H]4CC(O)CC[C@]4(C)C3CC[C@@]21C (some centres undefined)	growth inhibition	98
CCCCCCCN1C(=O)c2ccccc2C1=O	growth inhibition	56
O=C(Cc1ccccc1)NNc1nc(NNC(=O)c2ccncc2)nc(Nc2ccc([N+](=O)[O-])cc2)n1	growth inhibition	36
O=CC1(F)CC1(c1ccccc1)c1ccccc1 (centres undefined)	growth inhibition	14
Nc1ccc2c(c1)C(=O)c1c(F)cccc1-2	growth inhibition	-30
O=NC1c2cccc3cccc(c23)C1N=O (centres undefined)	growth inhibition	98
Nc1cc2ccccc2cc1N	growth inhibition	40
COc1ccc(-c2cc(-c3cc(C)cc(Cl)c3O)nc3[nH]c(=S)[nH]c(=S)c23)cc1	growth inhibition	86
Brc1ccc(B2Nc3ccccc3N2)cc1	growth inhibition	87
O=S(=O)(c1ccccc1)N1CN2CN(C1)CN(S(=O)(=O)c1ccccc1)C2	growth inhibition	30
CCCCCCCCN1COCC(COc2ccccc2C)OC1 (centres undefined)	growth inhibition	-2
CC/C(=C(\c1ccccc1)c1ccc(OCC[N+](C)(C)C)cc1)c1ccccc1	growth inhibition	27
ClCCCOc1c(Cl)cc(Cl)cc1Cl	growth inhibition	60
COc1ccc(N=c2cc(-c3ccccc3)oc3ccccc23)cc1	growth inhibition	26
CCCN=Cc1cc(Cc2ccc(O)c(C=NCCC)c2)ccc1O	growth inhibition	99
COc1cc(NCCCCNCC(C)(C)C)c2ncccc2c1	growth inhibition	31
N#Cc1nc(Nc2ccc(Cl)cc2)sc1N	growth inhibition	-24
CO[C@@]1([C@@H](Cl)c2ccccc2)C(=O)N(C)/C(=C\c2ccccc2)C(=O)N1C	growth inhibition	10

###

- assay: NCI Yeast Anticancer Drug Screen. Data for the wt1 strain (AID 149);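 further: 0% = growth of vehicle-treated wt1 cultures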
- test_conditions: S. cerevisiae wt1 strain (SPY 50644) growth inhibition; at 100.0 µM; hits give high values
This is part of a sample that, as a whole, favours compounds with a hit. Of some 79,000 tested, about 15% had one in any assay.
Quick rule for you: growth inhibition at 40% or higher means YES, lower means NO.

compound	assigned_label
O=C1NC(c2cccc(OCc3ccccc3)c2)Nc2ccccc21 (stereo not drawn)	NO
CCCCN(CCC#N)c1ccc(/C=C/c2ccnc3ccccc23)cc1	YES
CCC(=O)C1=C(O)c2cc(OC)ccc2CC1C(=O)OC (stereo not drawn)	NO
C[n+]1c(-c2ccc(/C=N/NC(=O)c3ccc(C(=O)N/N=C/c4ccc(-c5cn6ccccc6[n+]5C)cc4)cc3)cc2)cn2ccccc21	NO
COc1cc2c(cc1O)[C@H](C)C(c1ccccc1OC)O2 (stereo partly drawn)	YES
O=C1Nc2ccc(Br)cc2C1=Nc1cccnc1	NO
O=C(Nc1cccs1)c1ccccc1	YES
COc1ccc(C(OCC2OC(n3cnc4c(=O)n(Cc5ccccc5[N+](=O)[O-])nnc43)C(O)C2O)(c2ccccc2)c2ccc(OC)cc2)cc1 (stereo not drawn)	NO
O=C(Nc1ccc(Cl)cc1)c1cc2cc(N=Nc3ccccc3Cl)ccc2oc1=O	YES
CC(=O)/C=C/c1cc([N+](=O)[O-])ccc1O	YES
CS(=O)(=O)O.[Ag]	YES
CCOC(=O)/C(=C\c1cccc(C)c1)C(C)=O	YES
CCCCCCNCCCNc1c2cc(OC)ccc2nc2cccc([N+](=O)[O-])c12	YES
CCCCCCCCCCCNC=O	YES
O=c1[nH]c2c([N+](=O)[O-])cccc2c2ccccc12	YES
CCC(/C=C/c1ccccc1)=N\Nc1ccc(Cl)cc1	YES
CC1=NN(C(=O)c2ccccc2O)C(=O)/C1=C/c1ccco1	YES
C[C@H](CCC1=NC(C)(C)CO1)C1CCC2[C@@H]3C(O)C[C@@H]4CC(O)CC[C@]4(C)C3CC[C@@]21C (stereo partly drawn)	YES
CC(C)OC(=O)NNc1cccc(Cl)c1	YES
CC1=C(C)C(=O)C2=C(OCCO2)C1=O	NO
COc1cc(OC)c(CSCC(NC(=O)OCC2c3ccccc3-c3ccccc32)C(=O)O)c(OC)c1 (stereo not drawn)	YES
Nc1ccc2c(c1)C(=O)c1c(F)cccc1-2	YES
Cc1cc2nc3ccccc3n2c2ccccc12	NO
CCCCCCCCSC1=C(Cl)C(=O)C(OC)=C(OC)C1=O	YES
CCOC(=O)C(Cc1c2ccccc2cc2ccccc12)(NC(C)=O)C(=O)OCC	NO
O=C(/N=N/C(=O)Oc1ccccc1)Oc1ccccc1	NO
O=C1Nc2ccc(Br)cc2C1=Nc1ccc(Cl)cc1	YES
[N-]=[N+]=NC1(c2ccccc2)C(=O)Nc2ccccc2C1=O (stereo not drawn)	NO
Nc1ccc(N=Nc2ccc(-c3ccc(O)cc3)cc2)c2ccc(S(=O)(=O)O)cc12	NO
O=NC1c2cccc3cccc(c23)C1N=O (stereo not drawn)	YES
Nc1cc2c(cc1N)-c1ccccc1C2=O	NO
Cc1cccc(C)c1NC(=O)C(C#N)C1=C(Cl)C(=O)c2ccccc2C1=O (stereo not drawn)	YES
CCCCCCCN(CCCCCCC)CC(=O)c1ccc2cc(Cl)c3ccccc3c2c1	YES
O/N=c1/ccn(O)c2ccccc12	YES
O=C1C=CC(=Nc2cccc3c2-c2ccccc2C3=O)O1	YES
NC(N)=NC(N)=Nc1ccccc1 (tested in a mixture with another compound)	NO
c1c[nH]c(CN2CCN(Cc3ncc[nH]3)CC2)n1	YES
O=C1c2cccc3cccc(c23)C(=O)N1O	YES
CC(=O)/C=C/c1cccc([N+](=O)[O-])c1	YES
CC(=O)/C(=C\c1ccc(Cl)c(Cl)c1)C(=O)C(C)CN(C)C (stereo not drawn)	YES
CC(=O)Oc1ccc2c(c1)Cc1cc(N3C(=O)C=CC3=O)ccc1-2	YES
O=S(=O)(NNc1ccccc1)c1ccccc1	YES
Nc1ccc(/C=C/c2ccc3cccnc3c2)cc1	NO
CCC(OC(C)=O)C1CC(C(C)C)CCC1C (stereo not drawn)	YES
